- Measurement Protocol: median lethal dose in mice
- Assay Conditions: mouse, in vivo, ip
Endpoint Label: LD50 (mg/kg)
Give the value, in units of mg/kg, as a plain number.

Q) Recorded LD50 of CCCC(CCC)C(=O)O [VPA, 2-propylpentanoic acid] , please.
A) 658

----------
- Measurement Protocol: neurotoxicity in rats (positional sense test and gait and stance test)
- Format: in vivo
- Assay Conditions: in vivo, po; rat p.o.; read-out: TD50 (median neurological toxic dose)
Endpoint Label: TD50

Q) Item under review: CCCC(CCC)C(=O)NCC(N)=O [Compound 1, N-(2-n-Propylpentanoyl)glycinamide] . Reported TD50?
A) > 1000 mg/kg

----------
- Measurement Protocol: neurotoxicity in mice (rotorod ataxia test)
- Assay Conditions: mouse, in vivo, ip
Endpoint Label: TD50 (mg/kg)
The reply should contain only the number, in mg/kg.

Q) Which TD50 is listed for CCCC(CCC)C(=O)NCC(N)=O [Compound 1, N-(2-n-Propylpentanoyl)glycinamide] ?
A) 369

----------
- Measurement Protocol: in vivo
- Assay Conditions: mouse, ip
Endpoint Label: LD50

Q) Give the measured LD50 of CCCC(CCC)C(=O)NCC(N)=O [Compound 1, N-(2-n-Propylpentanoyl)glycinamide] .
A) > 4000 mg/kg
